B1: CDC25A (parent)
chain: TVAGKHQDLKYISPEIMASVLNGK

variants of: B1; experiment: protein stability index of a GFP-peptide fusion (GPS, HEK-293T) (PSI 1-6); higher = more stable; settings: c terminus: a fixed tail appended;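 further: lentivirally expressed fusions sorted by FACS into six bins by GFP to DsRed ratio, PSI derived from sequencing read proportions per bin multiplied by bin number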
ENDPOINT LABEL: protein stability index
Answers are plain numbers.

{"SEQUENCE ENTRY": "TKAGKHQDLKYISPEIMASVLNGK [V2K]", "protein stability index": 2.92}
{"SEQUENCE ENTRY": "TVAGKHQDLKYISPGIMASVLNGK [E15G]", "protein stability index": 3.08}
{"SEQUENCE ENTRY": "TVAGKSQDLKYISPEIMASVLNGK [H6S]", "protein stability index": 2.94}
{"SEQUENCE ENTRY": "TVAGKNQDLKYISPEIMASVLNGK [H6N]", "protein stability index": 2.96}
{"SEQUENCE ENTRY": "TVSGKHQDLKYISPEIMASVLNGK [A3S]", "protein stability index": 2.93}

// batch mode: one protein stability index value per listed entry
1. TVAGKHQDLKYISPNIMASVLNGK [E15N]
2. TVAGKHQDYKYISPEIMASVLNGK [L9Y]
3. TVAGKHQGLKYISPEIMASVLNGK [D8G]

Completion:
1. 2.95
2. 3.08
3. 3.06

// batch mode: one protein stability index value per listed entry
1. GVAGKHQDLKYISPEIMASVLNGK [T1G]
2. TIAGKHQDLKYISPEIMASVLNGK [V2I]

Completion:
3.06
2.91

All values here come from the supplement of paper PMC10567573.
